System: M14
assayProtocol: NCI tumour cell line growth inhibition, 48 h
Calls of active or inactive are those of the source. Rule as the data show it: active = GI50 up to about 1.1 µM and inactive = higher. Where a SMILES comes first, the peptide text is derived from it. [ ]: non-standard residue; d: D form. pGlu = O=C1CC[CH](C(=O)O)N1
List of GI50 values.
metricName: GI50

{"compound": "CC[C@]12CCCN3CCc4c(n(c5ccccc45)C(=O)C1)[C@@H]32 [VINBURNINE]", "metricName": "GI50", "testValue": "3.97 µM (inactive)"}
{"compound": "OCCN=C1c2ccccc2C2C(c3ccccc31)C1c3ccccc3C(=NCCO)c3ccccc3C21 (centres undefined)", "metricName": "GI50", "testValue": "20.1 µM (inactive)"}
{"compound": "CC(=O)O[C@]12CCC[C@H]1C1(O)C(O)CCC[C@H]12 (some centres undefined)", "metricName": "GI50", "testValue": "> 100 µM (inactive)"}
{"compound": "CCOC(=O)CC(=O)CSc1c(-c2ccccc2)c(=O)n(-c2ccccc2)c(=S)n1-c1ccccc1", "metricName": "GI50", "testValue": "> 100 µM (inactive)"}
{"compound": "CC/C(=N\\NS(=O)(=O)c1ccccc1)c1ccccc1", "metricName": "GI50", "testValue": "> 100 µM (inactive)"}
{"compound": "C=CCN1/C(=C(\\C#N)c2nc3ccccc3[nH]2)Sc2c1nc[nH]c2=O", "metricName": "GI50", "testValue": "> 100 µM (inactive)"}
{"compound": "CC(NC(=O)C1CCC(=O)N1)C(=O)N1CCCC1C(N)=O (stereo not drawn) ([pGlu]-Ala-Pro-NH2; configuration not given here)", "metricName": "GI50", "testValue": "> 100 µM (inactive)"}
{"compound": "O=c1[nH]c2cc3cccnc3c(Cl)c2nc1CBr", "metricName": "GI50", "testValue": "13.5 µM (inactive)"}
{"compound": "COC(=O)C1([C@@H]2C[C@@H](O)[C@]3(C)CC/C=C(\\C)CCC[C@H](C)[C@H](O)[C@@H]2O3)CC1", "metricName": "GI50", "testValue": "53.3 µM (inactive)"}

Source listed as ChEMBL document CHEMBL1201862.
